Target: UniProtKB Q64346
Assay: catalase influence on rat DUSP6 inhibition – biochemical, catalase added, probe assessment, dose response (AID 564)
pIC50: −log10 of the molar value.

[
  {
    "molecule": "N#Cc1c(N)sc(=S)c2c1CCN(Cc1ccccc1)C2",
    "pIC50": 4.32
  },
  {
    "molecule": "Cc1cccc(NC(=O)c2cc(NC(=O)C3CCCCC3C(=O)O)ccc2N2CCCCC2)c1 (stereo not given)",
    "pIC50": "< 4.30"
  },
  {
    "molecule": "O=C(NC1(O)C(=O)c2ccccc2C1=O)c1ccccc1",
    "pIC50": "< 4.30"
  },
  {
    "molecule": "CCn1c(SCC(=O)Nc2ccc3c(c2)c2ccccc2n3CC)nnc1-c1ccco1 [MLS000050867]",
    "pIC50": "< 4.30"
  },
  {
    "molecule": "[O-]/[N+](=C\\c1ccc(OC(F)F)cc1)c1ccccc1",
    "pIC50": "< 4.30"
  }
]

----------
Biological target: Dual specificity protein phosphatase 6 (Rattus norvegicus, UniProt Q64346)
Sequence (Q64346 whole entry): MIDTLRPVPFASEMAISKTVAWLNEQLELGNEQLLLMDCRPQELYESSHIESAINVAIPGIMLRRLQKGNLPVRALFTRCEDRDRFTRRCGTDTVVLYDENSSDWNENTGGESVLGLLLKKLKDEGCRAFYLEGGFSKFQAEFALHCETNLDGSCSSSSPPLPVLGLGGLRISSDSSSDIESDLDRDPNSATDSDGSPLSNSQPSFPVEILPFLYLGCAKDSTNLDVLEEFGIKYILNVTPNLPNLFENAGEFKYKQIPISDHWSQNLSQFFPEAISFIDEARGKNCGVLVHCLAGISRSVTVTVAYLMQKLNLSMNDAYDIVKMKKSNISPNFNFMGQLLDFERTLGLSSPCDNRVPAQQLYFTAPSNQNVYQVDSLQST
Assay: catalase influence on rat DUSP6 inhibition – biochemical, catalase added, probe assessment, dose response (AID 564)
pIC50: −log10 of the molar value.
pIC50 overview

[
  {
    "compound": "COc1ccc(Cn2c(C)nc3c(c2=O)c2nc4ccccc4nc2n3Cc2ccco2)cc1 [MLS000079944]",
    "pIC50": 4.32
  },
  {
    "compound": "CCCCCNC(=O)c1ccc2c(=O)[nH]c3c(C(=O)NCC4CCCO4)sc(=S)n3c2c1 (centres undefined)",
    "pIC50": "< 4.30"
  },
  {
    "compound": "CCc1ccc(NC(=O)CSc2nc3ccccc3c(=O)n2CCN2CCOCC2)cc1 [MLS000095236]",
    "pIC50": "< 4.30"
  },
  {
    "compound": "N#Cc1c(N2CCCC2)nc(N)c2c(N)nc(N3CCCC3)cc12 [SMR000061605]",
    "pIC50": "< 4.30"
  },
  {
    "compound": "O=C(Nc1ccc2nc(-c3ccco3)c(-c3ccco3)nc2c1)N1CCCCCC1",
    "pIC50": "< 4.30"
  },
  {
    "compound": "CC(=O)[C@@H]1[C@@H]2C(=O)N(c3ccc(F)c(Cl)c3)C(=O)[C@@H]2C2c3ccccc3C=CN21 (some centres undefined) [MLS000040594]",
    "pIC50": "< 4.30"
  },
  {
    "compound": "Cc1c(N=c2c(=O)c3ccccc3c2=O)c(=O)n(-c2ccccc2)n1C [MLS000105950]",
    "pIC50": "< 4.30"
  },
  {
    "compound": "CC(C)Cn1c(N)c(C(=O)COC(=O)c2cc(-c3ccco3)nc3ccccc23)c(=O)n(C)c1=O",
    "pIC50": "< 4.30"
  },
  {
    "compound": "COCCCn1c(N)c(C(=O)NCCC(C)C)c2nc3ccccc3nc21 [MLS000041744]",
    "pIC50": "< 4.30"
  },
  {
    "compound": "O=C(Nc1ccccc1)c1ccc2nc(-c3ccco3)c(-c3ccco3)nc2c1",
    "pIC50": "< 4.30"
  },
  {
    "compound": "COc1ccc(-c2cc3nc(C4CCN(C(=O)OC(C)(C)C)CC4)c(C(=O)O)cn3n2)cc1",
    "pIC50": "< 4.30"
  },
  {
    "compound": "O=C(OC1CCCCC1)c1ccc2c(c1)C1C=CCC1C(C(=O)O)N2 (centres undefined) [SMR000019385]",
    "pIC50": "< 4.30"
  },
  {
    "compound": "CC(C)Sc1nc2sc3c(c2c2nnc(SCC(=O)NCc4ccco4)n12)CCCC3 [MLS000082957]",
    "pIC50": "< 4.30"
  },
  {
    "compound": "Cc1cccc(N2CCN(C(=O)Cc3c(C(=O)O)[nH]c4ccc(Cl)cc34)CC2)c1C",
    "pIC50": "< 4.30"
  },
  {
    "compound": "[O-]/[N+](=C\\c1ccncc1)c1ccccc1",
    "pIC50": "< 4.30"
  },
  {
    "compound": "CCOc1ccc(-c2cc3nc(C4CCN(C(=O)OC(C)(C)C)CC4)c(C(=O)O)cn3n2)cc1",
    "pIC50": "< 4.30"
  },
  {
    "compound": "N#Cc1c(NC(=O)c2ccc(Br)o2)n(-c2ccccc2)c2nc3ccccc3nc12",
    "pIC50": "< 4.30"
  },
  {
    "compound": "CCn1nc(-c2cccs2)nc2c(=O)n(C)c(=O)nc1-2",
    "pIC50": "< 4.30"
  },
  {
    "compound": "[O-]/[N+](=C/c1ccc(F)cc1)c1ccccc1",
    "pIC50": "< 4.30"
  }
]
